Test system: T-47D breast
MEASUREMENT_LABEL: GI50

SMILES_CODE: Cn1cccc1-c1cc(-c2cccs2)[nH]c(=O)c1C#N
MEASUREMENT_LABEL: GI50
OBSERVED_VALUE: > 100 µM
--
SMILES_CODE: CCOC(=O)c1c(C)nc2ccc(Cl)cc2c1-c1ccccc1
MEASUREMENT_LABEL: GI50
OBSERVED_VALUE: 12.9 µM
--
SMILES_CODE: COc1ccc(/C=C2\CN(Cc3cn(CCCNc4ccnc5cc(Cl)ccc45)nn3)C/C(=C\c3ccc(OC)c(OC)c3)C2=O)cc1OC
MEASUREMENT_LABEL: GI50
OBSERVED_VALUE: 2.42 µM
--
SMILES_CODE: c1cc(OCCN2CCCCCC2)ccc1CNc1ccc2nc(CCC3CCCCC3)[nH]c2c1
MEASUREMENT_LABEL: GI50
OBSERVED_VALUE: 1.72 µM
--
SMILES_CODE: COc1ccc(-c2cnc3ccnn3c2-c2cc(OC)c(OC)c(OC)c2)cc1
MEASUREMENT_LABEL: GI50
OBSERVED_VALUE: > 100 µM
--
SMILES_CODE: O=C1/C(=C\C(Cl)=C/c2ccc([N+](=O)[O-])cc2)SC(=S)N1CCc1ccc(O)cc1
MEASUREMENT_LABEL: GI50
OBSERVED_VALUE: 1.64 µM
--
SMILES_CODE: Cc1n[nH]c(=S)n1/N=C/c1ccc(F)c(Oc2ccccc2)c1
MEASUREMENT_LABEL: GI50
OBSERVED_VALUE: > 100 µM
--
SMILES_CODE: CN1CCC[C@@H]1CCO[C@](C)(c1ccccc1)c1ccc(Cl)cc1
MEASUREMENT_LABEL: GI50
OBSERVED_VALUE: 3.29 µM

----------
Tested on: HCT-15 colon
Assay: NCI tumour cell line growth inhibition, 48 h
MEASUREMENT_LABEL: TGI

SMILES_CODE: O=[N+]([O-])c1cc(CCl)ccc1CCl
MEASUREMENT_LABEL: TGI
OBSERVED_VALUE: 3.64 µM
//
SMILES_CODE: O=C(O)C1(C(=O)O)CC1(C(=O)O)C(=O)O
MEASUREMENT_LABEL: TGI
OBSERVED_VALUE: > 100 µM
//
SMILES_CODE: O=c1cc(-c2ccc(Cl)cc2)[nH]c2ncccc12
MEASUREMENT_LABEL: TGI
OBSERVED_VALUE: > 100 µM
//
SMILES_CODE: Cn1ncc2c(/N=C/c3cccs3)[nH]c(=S)nc21
MEASUREMENT_LABEL: TGI
OBSERVED_VALUE: > 100 µM
//
SMILES_CODE: Cc1cc(C)c(O)c(Cc2cccc(Cc3cc(C)cc(C)c3O)c2O)c1
MEASUREMENT_LABEL: TGI
OBSERVED_VALUE: > 100 µM
//
SMILES_CODE: CS(=O)(=O)c1nc(-c2cc3c(c(S(C)(=O)=O)n2)CCCC3)cc2c1CCCC2
MEASUREMENT_LABEL: TGI
OBSERVED_VALUE: > 100 µM

----------
System: HCT-116 colon
Test: NCI tumour cell line growth inhibition, 48 h
Non-standard residues stand in square brackets, D forms with d. Residues, ends and D or L forms follow the SMILES beside them. ξ: configuration not given here. *: point of attachment. Boc = CC(C)(C)OC(=O)*; ξV = CC(C)C(N)C(=O)O; OBn = c1ccc(CO*)cc1

COMPOUND: O=C1c2ccccc2-c2nc3ccc(O)cc3n21
TGI: > 100 µM
//
COMPOUND: CC1=C2C(=O)OCC23C=COC3(C)O1 (configuration not stated)
TGI: > 100 µM
//
COMPOUND: CCOc1ccccc1N=Nc1c(-c2ccccc2)nn(C(=O)CC(=O)Nc2cccc(Cl)c2)c1-c1ccccc1
TGI: > 100 µM
//
COMPOUND: NC1=C(Cl)C(=O)c2ccc(S(N)(=O)=O)cc2C1=O
TGI: 0.602 µM
//
COMPOUND: COc1ccc(C(=O)N2CCc3c([nH]c4ccccc34)C2C(=O)O)o1 (configuration not stated)
TGI: > 10 µM
//
COMPOUND: O=C(O)c1ccc(O)c(N=Nc2cc(S(=O)(=O)O)c3ccccc3c2O)c1
TGI: 37.4 µM
//
COMPOUND: Cc1cc(C)c(O)c(Cc2cccc(Cc3cc(C)cc(C)c3O)c2O)c1
TGI: > 100 µM
//
COMPOUND: COC(=O)C1=NN2c3ccccc3C(=O)OCCC2(C)C1 (configuration not stated)
TGI: > 100 µM
//
COMPOUND: C[C@]12CCC(=O)C=C1CC[C@@H]1[C@@H]2[C@@H](O)C[C@@]2(C)[C@H]1CC[C@]2(O)C(=O)CO
TGI: > 100 µM
//
COMPOUND: N#CC1=C(S)N(C2OC(CO)C(O)C(O)C2O)C(c2ccccc2)=CC1c1ccccc1 (configuration not stated)
TGI: > 100 µM
//
COMPOUND: Nc1ccccc1N/C(=C\C(=O)C(Cl)(Cl)Cl)c1ccccc1
TGI: 38.2 µM
//
COMPOUND: CCOP(=O)(OCC)C1CC(O)CN1OC(=O)C(C)(C)C (configuration not stated)
TGI: > 100 µM
//
COMPOUND: [O-][N+](CCO)(CCO)c1ncnc2nc[nH]c12
TGI: > 100 µM
//
COMPOUND: O=C(O)c1ccc2c(c1Nc1ccccc1)C(=O)c1ccccc1C2=O
TGI: > 100 µM
//
COMPOUND: CCCCOC(=O)C1CN2C=CC=NC2=NC1(C(F)(F)F)C(F)(F)F (configuration not stated)
TGI: > 100 µM
//
COMPOUND: Cc1c2c(nn1C(=O)c1nn(-c3ccc(Cl)cc3)cc1O)-c1ccccc1CC2
TGI: > 100 µM
//
COMPOUND: CC(C)C(NC(=O)OC(C)(C)C)C(=O)NCC(=O)OCc1ccccc1 (configuration not stated) (Boc-[ξV]-Gly-OBn)
TGI: 52.6 µg/mL
//
COMPOUND: Cc1cc2c(c(C=Nc3ccc([N+](=O)[O-])cc3)c1)OC1(C=C2)Oc2ccccc2C(=O)N1C (configuration not stated)
TGI: 30.9 µM
//
COMPOUND: CCOC(=O)C(Cc1c2ccccc2cc2ccccc12)(NC(C)=O)C(=O)OCC
TGI: > 100 µM
//
COMPOUND: N#Cc1c(-c2ccccc2)c(N=Nc2ccc(F)cc2)c(=O)n2c1[nH]c1ccccc12
TGI: 14.2 µM
//
COMPOUND: O=C1N=C(c2ccccc2)OC1C(=O)c1ccccc1 (configuration not stated)
TGI: > 100 µM
//
COMPOUND: CCCCCCCCCCCCn1c(=O)cc(NCCCC)c2cc3c(NCCCC)cc(=O)n(CCCCCCCCCCCC)c3nc21
TGI: > 100 µM
//
COMPOUND: CCOC(=O)c1ccc(N(CCOS(C)(=O)=O)CCOS(C)(=O)=O)cc1C
TGI: > 100 µM
//
COMPOUND: CC(C)(C)[Si](C)(C)OCCCCC1CC2(S(=O)(=O)C3=CC=C=C=C3)ON1CC2S(=O)(=O)c1ccccc1 (configuration not stated)
TGI: > 100 µM
//
COMPOUND: COc1ccc(C(c2ccc(C(C)C)cc(=O)c2O)c2ccc3cccnc3c2O)cc1 (configuration not stated)
TGI: 12.8 µM
//
COMPOUND: Nc1nc(N)c2c(n1)NC(c1ccccc1)CC(/C=C/c1ccc(Cl)cc1)=N2 (configuration not stated)
TGI: 4.76 µM
//
COMPOUND: O=C(O)C1(C(=O)O)CC1(C(=O)O)C(=O)O
TGI: > 100 µM

----------
Tested on: T-47D breast
Possible outcomes: Y = active, N = inactive

MOLECULE: COc1cc(C#N)cc(OC)c1OCCOCCOc1c(OC)cc(C#N)cc1OC
TARGET_UNDER_TEST: T-47D breast
CLASS: N
//
MOLECULE: CCCc1cc2cc(-n3nc(C)c4c3CC(C)(C)CC4=O)cc(NC3CCC(O)CC3)c2c(=O)[nH]1 (centres undefined)
TARGET_UNDER_TEST: T-47D breast
CLASS: Y
//
MOLECULE: C=C1C(=O)O[C@H]2[C@H]1CC/C(COC(=O)CCCCCCCCC(=O)OC/C1=C/CC[C@@]3(C)O[C@H]3[C@H]3OC(=O)C(=C)[C@@H]3CC1)=C\CC[C@@]1(C)O[C@@H]21
TARGET_UNDER_TEST: T-47D breast
CLASS: N
//
MOLECULE: O=C(Nc1n[nH]c2nc(-c3ccco3)ccc12)C1CC1
TARGET_UNDER_TEST: T-47D breast
CLASS: N

----------
System: RXF 393 renal
Experiment: NCI tumour cell line growth inhibition, 48 h
MEASUREMENT_LABEL: TGI

COMPOUND: CCN(CC)CCOc1ccc(/C(=C(\C)Cc2ccc(OC)cc2)c2ccc(OC(=O)NCc3ccccc3)cc2)cc1
MEASUREMENT_LABEL: TGI
OBSERVED_VALUE: 3.08 µM
--
COMPOUND: CN(c1ccccc1)S(=O)(=O)c1ccccc1[N+](=O)[O-]
MEASUREMENT_LABEL: TGI
OBSERVED_VALUE: > 100 µM
--
COMPOUND: O=C1OCc2c1cc(F)cc2[N+](=O)[O-]
MEASUREMENT_LABEL: TGI
OBSERVED_VALUE: > 100 µM
--
COMPOUND: C[C@@H](CO)OCOCc1ccccc1
MEASUREMENT_LABEL: TGI
OBSERVED_VALUE: > 100 µM
--
COMPOUND: O=CN1CCN(C(=O)c2cc(Cl)cc(Cl)c2)C1=S
MEASUREMENT_LABEL: TGI
OBSERVED_VALUE: 30.6 µM
--
COMPOUND: NC(CNO)C(=O)O (stereo not given)
MEASUREMENT_LABEL: TGI
OBSERVED_VALUE: > 100 µM
--
COMPOUND: C[C@]12CCC(=O)C=C1CC[C@@H]1[C@@H]2CC[C@]2(C)C(=O)[C@H](n3ccnc3)C[C@@H]12
MEASUREMENT_LABEL: TGI
OBSERVED_VALUE: > 100 µM
--
COMPOUND: CCCc1cc2cc(-n3nc(C)c4c3CC(C)(C)CC4=O)cc(NC3CCC(O)CC3)c2c(=O)[nH]1 (stereo not given)
MEASUREMENT_LABEL: TGI
OBSERVED_VALUE: 2.92 µM
--
COMPOUND: Cc1cn(C2CC(O)C(Cn3cc(Cn4ncc(=O)[nH]c4=O)nn3)O2)c(=O)[nH]c1=O (stereo not given)
MEASUREMENT_LABEL: TGI
OBSERVED_VALUE: > 100 µM
--
COMPOUND: Nc1nc(N)c2c(n1)NC(c1ccccc1)CC(/C=C/c1ccc(Cl)cc1)=N2 (stereo not given)
MEASUREMENT_LABEL: TGI
OBSERVED_VALUE: 16.7 µM
